# tgt: Thromboxane A2 receptor (Cavia porcellus)
# assay_name: In vitro concentration that reduced specific binding of [3H][…] to guinea pig platelet receptor, Thromboxane A2 receptor by 50%
reported_endpoint: IC50 (nM)

INSERT INTO measurements (compound_structure_string, reported_endpoint, observed) VALUES
  ('CCCCC[C@H](O)/C=C/[C@@H]1[C@@H](C/C=C\CCCC(=O)O)[C@H]2CO[C@@H]1C2', 'IC50', 31);
